# assay_remarks: Stability of NTI164 oil formulation at room temperature (UPLC)
# run_parameters: NTI164 oil, room temperature, Day 28
Item-by-item account of Cannabinoid content of NTI164, Day 28
metric_name: Cannabinoid content of NTI164, Day 28

compound: CCCCCc1cc(O)c2c(c1)OC(C)(C)[C@@H]1CCC(C)=C[C@@H]21 [Tetrahydrocannabinol (D9-THC), Delta-9-tetrahydrocannabinol]
metric_name: Cannabinoid content of NTI164, Day 28
result: <0.1 mg/mL
//
compound: C=C(C)[C@@H]1CCC(C)=C[C@H]1c1c(O)cc(CCC)cc1O [Cannabidivarin (CBDV), Cannabidivarin]
metric_name: Cannabinoid content of NTI164, Day 28
result: <0.1 mg/mL
//
compound: CCCCCc1cc(O)c(C/C=C(\C)CCC=C(C)C)c(O)c1C(=O)O [Cannabigerol Acid(CBG-A), Cannabigerolic acid]
metric_name: Cannabinoid content of NTI164, Day 28
result: 0.81 mg/mL
